System: Staphylococcus aureus
Experiment Description: Antibacterial activity against gentamicin-resistant Staphylococcus aureus ATCC 33592 by NCCLS two-fold dilution method
Format: functional
Known MIC of a selection of compounds
The reply should contain only the number, in mg/L.

O=C(O)c1cn(Cc2ccc(C(F)(F)F)cc2)c2cc(N3CCN(C(c4ccccc4)c4nnnn4C4CCCCC4)CC3)c(F)cc2c1=O (configuration not stated)
25
CCn1cc(C(=O)O)c(=O)c2cc(F)c(N3CCN(C(c4cccc5ccccc45)c4nnnn4C(C)(C)C)CC3)cc21 (configuration not stated)
0.78
CC(C)(C)n1nnnc1C(c1cccc2ccccc12)N1CCN(c2cc3c(cc2F)c(=O)c(C(=O)O)cn3Cc2ccc(C(F)(F)F)cc2)CC1 (configuration not stated)
50
CCn1cc(C(=O)O)c(=O)c2cc(F)c(N3CCN(C(c4ccc(OC)c5ccccc45)c4nnnn4C(C)(C)C)CC3)cc21 (configuration not stated)
12.5

Record CC(C)(C)n1nnnc1C(c1ccc(F)cc1)N1CCN(c2cc3c(cc2F)c(=O)c(C(=O)O)cn3Cc2ccc(C(F)(F)F)cc2)CC1 (configuration not stated) , field MIC: 6.25
